system: HTT mRNA; experiment: RT-qPCR splicing assay, HTT canonical (CJ) and alternative (AJ) junction mRNA; assay type: cell-based, human; conditions: Homo sapiens, 24 h, Table 3A; A673 or K562 cells, 24 h treatment; read-out: HTT CJ (IC50, decrease in CJ mRNA)
readout_type: IC50

Which measured IC50 value corresponds to Cc1ncc(-c2ccc(-c3ccc(N4CC[C@](C)(NC5CCC5)C4)nn3)c(O)c2)s1 ?
< 100 nM

Which measured IC50 value corresponds to COc1cc(-c2cc(O)c(-c3ccc(N4CC[C@H](N(C)C(C)(C)C)C4)nn3)cc2F)cnn1 ?
< 100 nM

Which measured IC50 value corresponds to COc1cc(-c2ccc(-c3ccc(N4CC[C@@H](NCC5CC5)C4)nn3)c(O)c2)cnn1 ?
< 100 nM

Which measured IC50 value corresponds to Cc1ncc(-c2ccc(-c3ccc(N4CCC(NC5CCC5)C4)nn3)c(O)c2)o1 (stereo not shown) ?
100 to 1000 nM
